meta.source: paper PMC3327328

# STUDY_SYSTEM: human Survivin wild type (human, UniProt O15392 1-142)
# Sequence (O15392 whole entry): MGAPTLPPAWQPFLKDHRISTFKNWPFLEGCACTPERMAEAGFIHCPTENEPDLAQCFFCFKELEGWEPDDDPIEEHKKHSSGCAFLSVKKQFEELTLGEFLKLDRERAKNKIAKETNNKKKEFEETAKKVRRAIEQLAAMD
# ASSAY_PROTOCOL: ITC
MEASURED_ENDPOINT: Kd

# Kd lookup, item ARTKQTARKSTG [histone H3 N-terminal peptide ARTKQTARKSTG, unmodified]
9.67 µM
